Molecular target: Dopamine beta-hydroxylase (Bos taurus, UniProt P15101)
Sequence (P15101 whole entry): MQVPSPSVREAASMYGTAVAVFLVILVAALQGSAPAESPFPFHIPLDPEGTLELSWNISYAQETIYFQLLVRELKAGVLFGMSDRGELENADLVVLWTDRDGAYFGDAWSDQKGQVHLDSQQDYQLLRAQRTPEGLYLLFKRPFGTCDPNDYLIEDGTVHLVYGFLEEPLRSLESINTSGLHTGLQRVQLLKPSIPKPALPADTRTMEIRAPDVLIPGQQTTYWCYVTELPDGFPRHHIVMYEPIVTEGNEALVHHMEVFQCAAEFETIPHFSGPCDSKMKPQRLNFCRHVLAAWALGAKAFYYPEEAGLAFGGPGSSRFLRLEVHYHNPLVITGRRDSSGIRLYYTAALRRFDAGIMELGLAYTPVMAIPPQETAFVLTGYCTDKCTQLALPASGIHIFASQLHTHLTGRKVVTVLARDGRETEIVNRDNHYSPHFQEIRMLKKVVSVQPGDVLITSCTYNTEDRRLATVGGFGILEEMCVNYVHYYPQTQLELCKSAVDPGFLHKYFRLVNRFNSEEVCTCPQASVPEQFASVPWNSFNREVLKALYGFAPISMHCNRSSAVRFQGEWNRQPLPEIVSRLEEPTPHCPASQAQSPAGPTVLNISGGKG
MEASURE: Ki (µM)

(I) Oc1ccc2ccoc2c1
(II) C=Cc1ccc(O)cc1
(III) Oc1ccc2occc2c1
(IV) NCC=C1SCCS1
Prompt line: Lab note: Ki ranking, ascending, for the listed compounds. Provide the ranking by listing each label in its place in the requested order.
Response line: IV, I, II, III
(IV: 5 µM, I: 40 µM, II: 700 µM, III: 1900 µM)

---

target: Dopamine beta-hydroxylase (Bos taurus) (UniProt P15101); experiment: Inactivation constant of compound was determined by using bovine dopamine beta-hydroxylase
MEASURE: K inact (min⁻¹)

Here is how some molecules turned out for K inact.
# STRUCTURE_NOTATION, RESULT_VALUE
measured = [
    ("NCC=C1SCCS1", 0.15),
    ("Oc1cccc2ccoc12", 0.25),
    ("Oc1ccc2ccoc2c1", 0.23),
]

(A) Oc1ccc2occc2c1
(B) C=Cc1ccc(O)cc1
Prompt line: // pick min by K inact: A , B Pick one; state its label.
Response line: B
(B: 0.025 min⁻¹, A: 0.23 min⁻¹)

---

assay: Ratio of inactivation constant (Kinact) and inhibitory constant (Ki)
MEASURE: Ratio

Here is how some compounds turned out for Ratio.
# COMPOUND, MEASURE, RESULT_VALUE
records = [
    ("NCC=C1SCCS1", "Ratio", 30000),
    ("Oc1ccc2ccoc2c1", "Ratio", 5750),
]

(I) C#CC(CN)c1ccc(O)cc1 (centres undefined)
(II) C=C(CN)c1ccc(O)cc1
Prompt line: // pick min by Ratio: I , II Pick one; state its label.
Response line: II
(II: 1560, I: 3230)

---

assay: Partition ratio was determined by quantitating amount of compound consumed after complete inactivation of a known amount of dopamine beta-hydroxylase.
MEASURE: Partition ratio

Here is how some compounds turned out for Partition ratio.
# STRUCTURE_NOTATION, RESULT_VALUE
records = [
    ("Oc1cccc2ccoc12", 35),
    ("Oc1ccc2occc2c1", 8),
]

(1) C=Cc1ccc(O)cc1
(2) Oc1ccc2ccoc2c1
Prompt line: // pick min by Partition ratio: 1 , 2 Pick one; state its label.
Response line: 2
(2: 27, 1: 730)
